TEST_TARGET: Delta-type opioid receptor (Homo sapiens, UniProt P41143)
Sequence (P41143 whole entry): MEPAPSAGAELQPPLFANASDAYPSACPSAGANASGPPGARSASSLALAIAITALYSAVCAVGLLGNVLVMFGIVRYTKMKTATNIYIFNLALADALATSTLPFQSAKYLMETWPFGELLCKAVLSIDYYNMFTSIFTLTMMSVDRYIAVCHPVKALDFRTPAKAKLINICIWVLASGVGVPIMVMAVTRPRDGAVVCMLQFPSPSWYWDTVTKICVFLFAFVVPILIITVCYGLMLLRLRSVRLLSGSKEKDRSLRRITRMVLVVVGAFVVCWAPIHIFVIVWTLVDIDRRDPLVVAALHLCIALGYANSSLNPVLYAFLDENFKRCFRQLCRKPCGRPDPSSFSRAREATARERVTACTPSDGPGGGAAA
EXPERIMENT_DESCRIPTION: Activity against [35S]GTP-gamma-S binding to human delta opioid receptor expressed in HN9.10 cells
Format: functional, cell-based
RESULT_TYPE: Emax (%)
Respond numerically; units are % and should not be typed.

Look up Emax of CCCC[C@@H](C(=O)N[C@@H](CC(=O)O)C(=O)N[C@@H](Cc1ccccc1)C(N)=O)N(C)C(=O)[C@H](Cc1c[nH]c2ccccc12)NC(=O)CNC(=O)[C@@H](Cc1ccccc1)NC(=O)[C@@H](N)Cc1ccc(O)cc1 and report it.
84

Look up Emax of CCCC[C@@H](C(=O)N[C@@H](CC(=O)O)C(=O)N[C@@H](Cc1ccccc1)C(N)=O)N(C)C(=O)[C@@H](Cc1c[nH]c2ccccc12)NC(=O)CNC(=O)[C@@H](Cc1ccccc1)NC(=O)[C@@H](N)Cc1ccc(O)cc1 and report it.
14

Look up Emax of CCCC[C@@H](C(=O)N[C@@H](CC(=O)O)C(=O)N[C@@H](Cc1ccccc1)C(N)=O)N(C)C(=O)[C@H](Cc1c[nH]c2ccccc12)NC(=O)CNC(=O)[C@H]1CCCN1C(=O)[C@@H](N)Cc1ccc(O)cc1 and report it.
110
